Test system: HeLa cells
Run Description: MTT cell viability assay
Format: cell-based, human
Run Conditions: 24 h treatment, mean of 4 independent experiments in quadruplicate
Property Measured: IC50 (µM)
Reply numerically in µM, unit not repeated.

Some solved cases for reference:
Compound | Property Measured | Unit Name | Data Value
CSc1ccc(-c2cc(-c3ccc(-n4cc(CCCN5CCCC5)nn4)cc3)nc(-c3ccc(-n4cc(CCCN5CCCC5)nn4)cc3)c2)cc1 [Compound 1a] | IC50 | µM | 4.34
CSc1ccc(-c2cc(-c3ccc(-n4cc(CCCN5CCN(C)CC5)nn4)cc3)nc(-c3ccc(-n4cc(CCCN5CCN(C)CC5)nn4)cc3)c2)cc1 [Compound 1b] | IC50 | µM | 3.15

input: Entry CSc1ccc(-c2cc(-c3ccc(-n4cc(CCN5CCN(C)CC5)nn4)cc3)nc(-c3ccc(-n4cc(CCN5CCN(C)CC5)nn4)cc3)c2)cc1 [Compound 1c] needs its IC50 filled in; supply it.
output: 3.62
